// data source = paper PMC11931356

# Tested on: HT29 (colon cancer)
# Test name: MTT cell viability assay, HT29
# Type: cell-based
# Assay conditions: 24 h incubation, max 100 µM, mean ± SD
Assay metric: IC50

// query What does the data say about its IC50? Entry: N.N.[Cl][Pt][Cl] [Cisplatin, reference compound]
// result 59.4 µM

###

What IC50 was measured for each of the following?
# System: HT29 (colon cancer)
# Test name: MTT cell viability assay, HT29
# Type: cell-based
# Assay conditions: Homo sapiens, HT-29, 24 h incubation, max 100 µM, mean ± SD
Expressed in µM, but write only the number.

// query What does the data say about its IC50? Entry: Cc1ccsc1C=NNC(=O)c1ccc(-c2nc3cc(C#N)ccc3[nH]2)cc1
// result 39.1

// query What does the data say about its IC50? Entry: N#Cc1ccc2[nH]c(-c3ccc(C(=O)NN=Cc4ccco4)cc3)nc2c1
// result 71.8

// query What does the data say about its IC50? Entry: Cc1ccc(C=NNC(=O)c2ccc(-c3nc4cc(C#N)ccc4[nH]3)cc2)o1
// result 89.6

// query What does the data say about its IC50? Entry: N#Cc1ccc2[nH]c(-c3ccc(C(=O)NN=Cc4ccc([N+](=O)[O-])o4)cc3)nc2c1
// result 90.6

// query What does the data say about its IC50? Entry: Cc1ccc(C=NNC(=O)c2ccc(-c3nc4cc(C#N)ccc4[nH]3)cc2)s1
// result 45.8

###

# System: human breast adenocarcinoma cell line (MCF7)
# Test name: MTT cell viability assay, MCF7
# Assay type: cell-based
# Assay conditions: Homo sapiens, MCF7, 24 h incubation, max 100 µM, mean ± SD
# From the text: Cell lines from the American Type Culture Collection (ATCC) were used to test the human breast adenocarcinoma cell line (MCF7), rat glial tumor (C6), healthy mouse fibroblast cell line (L929), and colon cancer (HT29). Cells were combined with solutions of 1% penicillin (Sigma Aldrich), 10% fetal bovine serum (FBS; Sigma Aldrich), and 89% DMEM (Dulbecco's modified Eagle's medium; Gibco, Thermo Fisher Scientific). […]
What IC50 was measured for each of the following?

// query Enter reported IC50 observed with human breast adenocarcinoma cell line (MCF7) for Cc1ccc(C=NNC(=O)c2ccc(-c3nc4cc(C#N)ccc4[nH]3)cc2)s1
// result > 100 µM

// query Enter reported IC50 observed with human breast adenocarcinoma cell line (MCF7) for N#Cc1ccc2[nH]c(-c3ccc(C(=O)NN=Cc4ccco4)cc3)nc2c1
// result 86.4 µM

// query Enter reported IC50 observed with human breast adenocarcinoma cell line (MCF7) for N#Cc1ccc2[nH]c(-c3ccc(C(=O)NN=Cc4ccc([N+](=O)[O-])s4)cc3)nc2c1
// result > 100 µM

// query Enter reported IC50 observed with human breast adenocarcinoma cell line (MCF7) for N#Cc1ccc2[nH]c(-c3ccc(C(=O)NN=Cc4ccncc4)cc3)nc2c1
// result > 100 µM

// query Enter reported IC50 observed with human breast adenocarcinoma cell line (MCF7) for N#Cc1ccc2[nH]c(-c3ccc(C(=O)NN=Cc4cccs4)cc3)nc2c1
// result > 100 µM

###

# Tested on: human breast adenocarcinoma cell line (MCF7)
# Test name: MTT cell viability assay, MCF7
# Assay type: cell-based
# Assay conditions: Homo sapiens, MCF7, 24 h incubation, max 100 µM, mean ± SD
Assay metric: pIC50
# log scale: pIC50 equals minus log10 of the concentration in mol/L

// query What does the data say about its pIC50? Entry: Cc1ccsc1C=NNC(=O)c1ccc(-c2nc3cc(C#N)ccc3[nH]2)cc1
// result 4.59

// query What does the data say about its pIC50? Entry: Cc1ccc(C=NNC(=O)c2ccc(-c3nc4cc(C#N)ccc4[nH]3)cc2)o1
// result 4.05
